src = patent US7442798B2

test system: lasB′-lacZ fusion; test: PQS bioassay: activation of lasB′-lacZ fusion in P. aeruginosa strain PAO-R1 (lasR−) (pTS400), β-galactosidase assay; type: cell-based, Pseudomonas aeruginosa; details: strain PAO-R1 (lasR−) (pTS400)
Property Label: induction of lasB′-lacZ / activity in the PQS bioassay (in words)

molecule="CCCC(=O)N[C@H]1CCOC1=O [C4-HSL, N-butanoyl-L-homoserine lactone, reference compound]" measured_target="lasB′-lacZ fusion" result="could not be mimicked"
molecule="CCCCCCCc1cc(O)c2ccccc2[n+]1[O-] [2-heptyl-4-hydroxy-quinoline-N-oxide, reference compound]" measured_target="lasB′-lacZ fusion" result="not active"
molecule="CCCCCCCCCC(=O)CC(=O)N[C@H]1CCOC1=O [3-oxo-C12-HSL, N-3-(oxododecanoyl)-L-homoserine lactone, reference compound]" measured_target="lasB′-lacZ fusion" result="could not be mimicked"
molecule="CCCCCCCC1C(=O)c2ccccc2N=C1O (stereo not shown) [2-hydroxy-3-heptyl-4-quinolone, reference compound]" measured_target="lasB′-lacZ fusion" result="not active"
